Field: MIC. Provide a value for each of the compounds that follow.
system: Bacillus pumilus; experiment: Anti-microbial activity against Bacillus pumilus CMCC63202 incubated for 20 hrs By CLSI based micro-dilution method; format: functional

O=C(CCCCCOc1cccc(F)c1)NNc1nc2ccccc2o1 = > 512 µg/mL
O=C(CCCCCOc1ccc(F)cc1)NNc1nc2ccccc2o1 = > 512 µg/mL
O=C(CCCCOc1ccc(Cl)cc1)NNc1nc2ccccc2s1 = 256 µg/mL
O=[N+]([O-])c1ccccc1/C=N/Nc1nc2ccccc2o1 = 256 µg/mL
Cc1ccc(OCC(=O)NNc2nc3ccccc3o2)cc1 = > 512 µg/mL

Consider now this further compound.
Query: Request the reported MIC associated with Clc1ccc(/C=N/Nc2nc3ccccc3o2)cc1
Response: > 512 µg/mL
